test: Comparative stability in aqueous acidic medium, content by HPLC
Type: physicochemical
conditionNotes: acidic aqueous solution, pH interval 2,46 bis 3,77, 53°C, read-out: Prozentgehalt
assayReadout: remaining at 40 h

Prompt: Name the reported remaining at 40 h value associated with the compound COc1ccc(CC2c3cc(OC)c(OC)cc3CC[N+]2(C)CCC(=O)OCCCCCOC(=O)CC[N+]2(C)CCc3cc(OC)c(OC)cc3C2Cc2ccc(OC)c(OC)c2)cc1OC (stereo not shown)
Response: 86 to 91.9%

###

test: Comparative stability in aqueous acidic medium, content by HPLC
Assay type: physicochemical
conditionNotes: aqueous solution, phosphoric acid, pH 2, pH 2,88, 0,5% aqueous solution, 53°C, read-out: Prozent-gehalt
assayReadout: remaining at 40 h (%)
Field: numeric (%). Do not append units.

Prompt: Name the reported remaining at 40 h value associated with the compound COc1ccc(CC2c3cc(OC)c(OC)cc3CC[N+]2(C)CCC(=O)OCCCCCOC(=O)CC[N+]2(C)CCc3cc(OC)c(OC)cc3C2Cc2ccc(OC)c(OC)c2)cc1OC (stereo not shown) [Dibezylat, reference compound]
Response: 72.9
